# STUDY_SYSTEM: GST-Atrophin-1 Interacting Protein PDZ domain 1 (Rattus norvegicus (Rat)), O88382
# Sequence (O88382 408-511): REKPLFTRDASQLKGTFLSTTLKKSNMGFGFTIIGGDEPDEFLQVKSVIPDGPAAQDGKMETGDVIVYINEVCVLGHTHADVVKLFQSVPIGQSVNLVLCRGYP
# METHOD_DESCRIPTION: G assay titration, PDZ 1 ug/ml
MEASURED_ENDPOINT: pKd
Answers are plain numbers, as −log10 of the molar value.

[Q] Return pKd (reported value) for this binder: TREDIYVNYPTFSRRPKTRV (modifications not checked) [DNAM-1]
[A] 5.52
